experiment: NCI Yeast Anticancer Drug Screen. Data for the rad50 strain (AID 155);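 note: 0% = growth of vehicle-only cultures of the same strain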; details: S. cerevisiae rad50 strain growth inhibition; at 50.0 µM
The panel holds about 79,000 compounds, 15% with a hit somewhere; the sample as a whole holds those more often. Activity calls are given as the source filed them. Cut-off read from the data, not from the text of the source: active = growth inhibition above about 70%; inactive = the rest.
Result category, one only: active, inactive

Reference set (4 entries):
- compound: "CCCCCCCCCCCCCCCCCCCCCC"
  class: "inactive"
- compound: "CC(C)(C)c1cc(CCC(=O)Nc2ccc(Cl)cc2)[nH]c(=S)n1"
  class: "inactive"
- compound: "O=C(C/C(=C/c1ccccc1)[N+](=O)[O-])c1ccccc1"
  class: "active"
- compound: "Nc1ccc([N+](=O)[O-])cc1C(=O)Oc1ccccn1"
  class: "inactive"

Request: For Fc1ccccc1C1CC(c2ccc3ccccc3c2)=Nc2ccccc2S1 (configuration not stated) , which call appears in the assay record?
Result: inactive

Request: What outcome does the record of this test show for O=C1Nc2c(Cl)cc(Cl)cc2C1=O ?
Result: inactive

Request: Each compound tested received a call. Report the one for CSc1nc(=O)cc(N)n1C .
Result: inactive

Request: Assay outcome for CCN(CC)c1ncnc2c1cnn2C : what was it?
Result: inactive

Request: // outcome(item) with item = CN(C)CCNCCN
Result: inactive

* * *

Measured growth inhibition of individual entries
experiment: NCI Yeast Anticancer Drug Screen. Data for the mlh1 rad18 strain (AID 175); conditions: S. cerevisiae mlh1 rad18 strain growth inhibition; at 50.0 µM; active compounds read high
The panel holds about 79,000 compounds, 15% with a hit somewhere; the sample as a whole holds those more often.
Expressed in %, but write only the number.

- mol: "O=C(CCCCCCCCC(=O)NC1CCCCC1)NC1CCCCC1"
  growth inhibition, %: -5.4

Request: Quick one: growth inhibition for Cc1ccccc1SCC(N)=O ?
Result: -0.7

Request: For the compound shown here, O=S(=O)(O)c1cccc2nsnc12 , give the reported growth inhibition.
Result: -1.3

Request: For the compound shown here, CC(C)(Br)C(=O)N1CCN(C(c2ccccc2)c2ccccc2)CC1 , give the reported growth inhibition.
Result: 14.7

Request: Would you kindly share the measured growth inhibition for O=C(Nc1cccc(Cl)c1)Oc1cccnc1 ?
Result: -12.6

Request: Tell me the measured growth inhibition of Oc1ccccc1-c1cc(-c2ccccc2)nc(NCCCCCCNc2nc(-c3ccccc3)cc(-c3ccccc3O)n2)n1 , please.
Result: 11.2

* * *

assay: NCI Yeast Anticancer Drug Screen. Data for the mec2-1 strain (AID 157); conditions: S. cerevisiae mec2-1 strain, at 50.0 µM, active compounds read high
This is part of a sample that, as a whole, favours compounds with a hit. Of some 79,000 tested, about 15% had one in any assay. Where a SMILES comes first, the peptide text is derived from it. [ ]: non-standard residue; d: D form. The star is where a group is joined. ξ: configuration not given here. Cbz = O=C(OCc1ccccc1)*; ξNva = CCCC(N)C(=O)O
Listed next: entries and their corresponding growth inhibition.
Hi! Could you send only the number? It should be in %, unit omitted.

- compound: "Fc1ccc(C(=C(c2ccc(F)cc2)c2ccc(F)cc2)c2ccc(F)cc2)cc1"
  unit-tag: "%"
  growth inhibition: -15.2
- compound: "BrC1C2=C(c3ccccc31)C(Br)c1ccccc12 (stereo not given)"
  unit-tag: "%"
  growth inhibition: 4.05
- compound: "COc1ccc(CCCC2C(=O)CC(C)OC2=O)cc1OC (stereo not given)"
  unit-tag: "%"
  growth inhibition: 3.25
- compound: "CCCCCCCSCC(O)COC(c1ccccc1)(c1ccccc1)c1ccccc1 (stereo not given)"
  unit-tag: "%"
  growth inhibition: -28.6
- compound: "CC1=CCC(=O)O1"
  unit-tag: "%"
  growth inhibition: 8.2
- compound: "Nc1ccnc2cc(Cl)ccc12"
  unit-tag: "%"
  growth inhibition: 4.45
- compound: "NC(=O)NCSCNC(N)=O"
  unit-tag: "%"
  growth inhibition: -0.2
- compound: "COc1ccc(NC(=O)COc2ccc(Cl)cc2Cl)cc1"
  unit-tag: "%"
  growth inhibition: 26.8

Request: Looking for the measured growth inhibition of CCCC1OCCO1 , can you help?
Result: -0.95

Request: GET /values?readout=growth inhibition&item= COC(=O)C1(O)CCC(C)CC1 (stereo not given)
Result: -9.25

Request: Which growth inhibition value belongs to O=C1CCCC2=C1CC1=C(CCCC1=O)N2c1ccc([N+](=O)[O-])cc1 ?
Result: -30.1

Request: Give the measured growth inhibition of CCCC(NC(=O)OCc1ccccc1)C(=O)NCC(=O)O (stereo not given) (Cbz-[ξNva]-Gly-OH) .
Result: 7.2

Request: Look up growth inhibition: Cc1nnc(Nc2ccc(Cl)c(Cl)c2)s1
Result: -20
